# assay-text: recombinant barcode read abundance after kanamycin selection (control-corrected) (log10(CPM+1)); higher = more efficient recombination; sequences stand for … in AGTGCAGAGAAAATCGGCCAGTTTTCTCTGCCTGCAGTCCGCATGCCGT…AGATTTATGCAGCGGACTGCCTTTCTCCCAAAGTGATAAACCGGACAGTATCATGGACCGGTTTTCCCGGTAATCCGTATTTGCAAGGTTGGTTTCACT; site = the 11-nt target;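 note: IS621 recombinase and bridge RNA in Escherichia coli cells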
Would you mind sorting the entries by recombinant barcode read abundance (log10) according to these classes? LOW (below 0.2), MID (0.2 to below 1), HIGH (1 or more)

Here are 4 sequences together with their reported answers.
Prompt: Which class is correct for the following sequence? GTAGACCCTTGGGTTCTAACCTGTTGCTG (site GTAGACCCTCA)
Completion: HIGH

Prompt: Which class is correct for the following sequence? AAGGTCGCTTGGGTTCTAACCTGTTGCCT (site AAGGTCGCTAG)
Completion: HIGH

Prompt: Which class is correct for the following sequence? AAAAGCCCTTGGGTTCTAACCTGTTGCCT (site ATAAGCCCTAG)
Completion: MID

Prompt: Which class is correct for the following sequence? CTTTGATCTTGGGTTCTAACCTGTTGCGT (site CATCGATCTAC)
Completion: LOW

Continuing:
Prompt: Which class is correct for the following sequence? CGAAATGCTTGGGTTCTAACCTGTTGCCT (site CGAAATGCTAG)
Completion: MID
